# tgt: Photoreceptor-specific nuclear receptor (Homo sapiens) (UniProt Q9Y5X4)
# Sequence (Q9Y5X4 whole entry, looked up): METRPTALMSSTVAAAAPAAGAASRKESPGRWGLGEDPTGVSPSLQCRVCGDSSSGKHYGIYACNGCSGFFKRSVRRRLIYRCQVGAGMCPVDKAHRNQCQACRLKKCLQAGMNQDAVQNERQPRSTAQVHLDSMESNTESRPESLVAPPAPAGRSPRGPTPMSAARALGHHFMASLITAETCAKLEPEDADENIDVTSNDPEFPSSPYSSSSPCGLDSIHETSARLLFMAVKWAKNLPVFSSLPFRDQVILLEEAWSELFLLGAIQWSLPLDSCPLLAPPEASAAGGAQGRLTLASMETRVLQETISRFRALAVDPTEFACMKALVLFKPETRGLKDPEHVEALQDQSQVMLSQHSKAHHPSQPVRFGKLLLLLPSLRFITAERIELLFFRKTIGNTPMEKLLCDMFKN
# experiment_summary: NR2E3 agonists, confirmation, biochemical, TR-FRET (AID 2379)
# conditions_used: cell-free NR2E3 corepressor release, 5 h, at 3.98 µM
The other results are listed elsewhere or left out. The source made the active and inactive calls. No stated cut-off is given here; in the data, active means activation above about 20%; inactive means the rest.
Field 'call' accepts active, inactive

Examples with answers:
molecule	classification
COc1cccc(-n2c(=S)[nH]c3c(oc4ccccc43)c2=O)c1	inactive
Cc1cccc(NC(=O)c2sc3nc(N4CCOCC4)c4c(c3c2N)CCCC4)c1	inactive
CC(=O)c1sc2nc(SCC(=O)N3CCCCC3)[nH]c(=O)c2c1C	inactive
CC1(C)Cc2ccccc2-c2[nH]c(=S)[nH]c(=O)c21	active

Lookup: Test call, this molecule: CCOC(=O)c1ccc(NC(=S)N2CCN(c3ccccn3)CC2)cc1
Found: inactive

====

# tgt: Nuclear receptor coactivator 1 (Homo sapiens) (UniProt Q15788)
# Sequence (Q15788 whole entry, looked up): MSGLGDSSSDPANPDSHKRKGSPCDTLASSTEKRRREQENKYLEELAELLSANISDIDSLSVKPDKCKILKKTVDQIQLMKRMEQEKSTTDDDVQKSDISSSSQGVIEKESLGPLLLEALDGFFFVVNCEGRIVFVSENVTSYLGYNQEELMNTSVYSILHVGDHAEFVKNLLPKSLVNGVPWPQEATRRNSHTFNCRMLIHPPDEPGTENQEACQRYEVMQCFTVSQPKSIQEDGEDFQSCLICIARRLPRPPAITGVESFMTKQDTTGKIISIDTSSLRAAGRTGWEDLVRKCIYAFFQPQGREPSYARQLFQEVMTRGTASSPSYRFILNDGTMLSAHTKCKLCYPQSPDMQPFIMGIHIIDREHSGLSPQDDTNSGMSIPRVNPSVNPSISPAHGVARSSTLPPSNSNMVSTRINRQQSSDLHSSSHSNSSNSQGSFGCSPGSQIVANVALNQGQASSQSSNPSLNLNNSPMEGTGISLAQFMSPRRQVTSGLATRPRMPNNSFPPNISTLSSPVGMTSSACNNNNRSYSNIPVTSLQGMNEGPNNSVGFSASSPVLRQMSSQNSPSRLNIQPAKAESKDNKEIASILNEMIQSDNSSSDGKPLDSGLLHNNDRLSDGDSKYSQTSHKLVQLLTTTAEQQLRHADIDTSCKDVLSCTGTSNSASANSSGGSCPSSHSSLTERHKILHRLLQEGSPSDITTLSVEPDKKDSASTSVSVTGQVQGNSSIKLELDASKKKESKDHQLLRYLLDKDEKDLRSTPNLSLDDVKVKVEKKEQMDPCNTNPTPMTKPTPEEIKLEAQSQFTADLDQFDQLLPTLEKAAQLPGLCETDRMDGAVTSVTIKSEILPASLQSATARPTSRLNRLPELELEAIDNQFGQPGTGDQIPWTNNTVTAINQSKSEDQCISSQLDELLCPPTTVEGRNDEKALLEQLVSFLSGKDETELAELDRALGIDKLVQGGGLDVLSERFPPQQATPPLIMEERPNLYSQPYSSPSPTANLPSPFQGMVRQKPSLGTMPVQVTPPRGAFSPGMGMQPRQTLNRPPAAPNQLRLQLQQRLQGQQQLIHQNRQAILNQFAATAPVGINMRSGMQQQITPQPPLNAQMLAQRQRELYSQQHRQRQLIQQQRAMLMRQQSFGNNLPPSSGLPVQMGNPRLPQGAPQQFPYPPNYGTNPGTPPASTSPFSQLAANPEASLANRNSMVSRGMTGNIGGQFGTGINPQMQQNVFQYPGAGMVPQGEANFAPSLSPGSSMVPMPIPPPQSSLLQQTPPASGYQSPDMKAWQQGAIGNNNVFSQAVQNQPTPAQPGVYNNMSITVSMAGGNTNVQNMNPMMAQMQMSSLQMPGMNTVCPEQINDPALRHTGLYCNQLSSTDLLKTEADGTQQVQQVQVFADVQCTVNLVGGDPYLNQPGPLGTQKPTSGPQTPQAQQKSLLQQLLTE
# experiment_summary: SRC1 coactivator transcriptional activity inhibitors, confirmation, cell-based, luminescence, quadruplicate (AID 588820);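 further: 0% = DMSO wells and 100% = gossypol 36 µM treated wells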
# conditions_used: HEK293 GAL4-SRC1 luciferase reporter, at 3.6 µM
The source made the active and inactive calls.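 Rule for the calls: active = mean inhibition above 46.68%, the untreated control wells mean plus 3 SD; inactive = the rest.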
Field 'call' accepts T for active, F for inactive

Examples with answers:
compound	classification
CCOC(=O)N=Nc1c2ccccc2c2nc3no[nH]c3nc12	T
O=C(Nc1ccc([N+](=O)[O-])cc1)Nc1ccc(OC(F)F)c(Cl)c1	F
CC(=NNC(=S)Nc1ccccc1)c1ccccn1	F
CC1(C)CC2CC(C)(CN2S(=O)(=O)c2ccc(C(=O)Nc3ccc(S(=O)(=O)N4CCOCC4)cc3)cc2)C1 (stereo not given)	F

Please examine the following record next.
Lookup: Test call, this compound: Cc1ccc2nc(NC(=O)CSCC(=O)OCC(=O)c3ccccc3)sc2c1
Found: F

====

# System: transactivating tegument protein VP16 (Human herpesvirus 1), Gal4-VP16 luciferase reporter
# experiment_summary: VP16 transactivation inhibitors, counter-screen for SRC3 inhibitor project, cell-based, luminescence, high throughput (AID 588794)
# conditions_used: mammalian cells, VP16-driven luciferase reporter luminescence; at 3.6 µM; active compounds read high
// map inhibition to label using class 0 = under 20%, class 1 = from 20% up to 30%, class 2 = 30% and over

Examples with answers:
compound	tgt	classification
CN(C(=O)OC(C)(C)C)c1ccc(-c2nc3ccccc3s2)cc1	transactivating tegument protein VP16 (Human herpesvirus 1), Gal4-VP16 luciferase reporter	class 2
Cc1nc2ccc(NC(=O)c3cccs3)cc2c(=O)n1Cc1ccc(Cl)cc1	transactivating tegument protein VP16 (Human herpesvirus 1), Gal4-VP16 luciferase reporter	class 0
CN(C)c1ccc(/C=C/c2ccc3c4ccccc4ccc3[n+]2-c2ccccc2)cc1	transactivating tegument protein VP16 (Human herpesvirus 1), Gal4-VP16 luciferase reporter	class 2
CC(C)C(=O)NC(c1ccco1)c1ccc2cccnc2c1O (stereo unspecified)	transactivating tegument protein VP16 (Human herpesvirus 1), Gal4-VP16 luciferase reporter	class 1
O=C1Cc2c([nH]c3ccc([N+](=O)[O-])cc23)-c2ccccc2N1	transactivating tegument protein VP16 (Human herpesvirus 1), Gal4-VP16 luciferase reporter	class 2

Lookup: Textbook exercise: identify the category of the compound given here, COc1ccc(-c2ncncc2-c2ccc(Cl)cc2)c(O)c1 , according to its measured value.
Found: class 1

Lookup: Then what about the compound CCc1ccc(N(CC)c2ncnc3nc[nH]c23)cc1 ?
Found: class 2

Lookup: Then what about the compound COc1cc(OC)cc(-c2nn[nH]n2)c1 ?
Found: class 0

Lookup: Then what about the compound Cc1ccnc(OC(C(=O)O)C(OCc2ccccc2)(c2ccccc2)c2ccc(C(F)(F)F)cc2)n1 (stereo unspecified) ?
Found: class 0

Lookup: Then what about the compound CCc1[nH]nc2c1C(C1C=CCCC1)C(C#N)=C(N)O2 (stereo unspecified) ?
Found: class 1

Lookup: Then what about the compound COc1cccc(/C=N/Nc2nc3ccccc3n3cnnc23)c1O ?
Found: class 0
